# Lookup of reported composite z-score keyed by entry
Target: Alpha-bungarotoxin (Bungarus multicinctus)
Test: compounds binding labelled alpha-BTX control protein – biochemical, small-molecule microarray, Alexa647 label, 635/667 nm fluorescence, artefact control for SMM control protein annotation, profiling panel (AID 1117)
Details: alpha-BTX-A647 binding fluorescence, higher = more signal

Prompt: Please report the measured composite z-score for "COc1ccc([Si](C)(C)[C@H]2[C@H](CCO)O[C@@]3(C(=O)N(Cc4cccc(N(C=O)c5ccccc5)c4)c4ccccc43)[C@@H]2C)cc1" tested on Alpha-bungarotoxin (Bungarus multicinctus).
Completion: 0.751

---

Target: Streptavidin (Streptomyces avidinii) (UniProt P22629)
Sequence (P22629 whole entry, looked up): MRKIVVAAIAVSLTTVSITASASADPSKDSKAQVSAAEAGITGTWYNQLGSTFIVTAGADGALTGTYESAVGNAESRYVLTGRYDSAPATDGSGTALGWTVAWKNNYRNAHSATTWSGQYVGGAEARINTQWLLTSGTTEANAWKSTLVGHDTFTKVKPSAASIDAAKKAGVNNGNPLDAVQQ
Assay: compounds binding control protein streptavidin – biophysical, small-molecule microarray, 635/667 nm fluorescence, artefact control for SMM compound annotation, primary screen (AID 1147);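 also: signal reflects streptavidin binding to arrayed compounds as a control protein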
Details: higher = more signal
property-measured: composite z-score
Form field (numeric): enter value without unit.

[[record]]
compound = "COCC(=C=CC[C@H](O)c1ccccc1OCCO)C[C@H](O)COCc1ccccc1"
target_system = "Streptavidin (Streptomyces avidinii) (UniProt P22629)"
reported_result = 0.259

[[record]]
compound = "O=C(NC1CC1)[C@@H]1c2ccccc2C(=O)N(Cc2cc(C(F)(F)F)cc(C(F)(F)F)c2)[C@H]1c1ccc(CO)cc1"
target_system = "Streptavidin (Streptomyces avidinii) (UniProt P22629)"
reported_result = 0.0581

[[record]]
compound = "Cc1ccc(C(C)CC(O)C2C=CC3C(=O)N(C)C(=O)C3N2Nc2ccccc2)o1 (stereo not drawn)"
target_system = "Streptavidin (Streptomyces avidinii) (UniProt P22629)"
reported_result = 0.0989

[[record]]
compound = "COc1ccc(C(=O)Nc2cccc(CN3C(=O)[C@]4(O[C@H](CC(=O)N5Cc6ccccc6C[C@H]5CO)[C@@H]([Si](C)(C)c5ccc(OC)cc5)[C@@H]4C)c4ccccc43)c2)cc1"
target_system = "Streptavidin (Streptomyces avidinii) (UniProt P22629)"
reported_result = -0.266

[[record]]
compound = "O=C(NC1CC1)[C@@H]1c2ccccc2C(=O)N(Cc2ccc(OC(F)(F)F)cc2)[C@H]1c1ccc(CO)cc1"
target_system = "Streptavidin (Streptomyces avidinii) (UniProt P22629)"
reported_result = -0.894

[[record]]
compound = "COc1ccc([Si](C)(C)[C@H]2[C@H](CC(=O)N3Cc4ccccc4C[C@H]3CO)O[C@@]3(C(=O)N(c4ccccc4)c4ccccc43)[C@@H]2C)cc1"
target_system = "Streptavidin (Streptomyces avidinii) (UniProt P22629)"
reported_result = 0.968


Prompt: Recall and state the measured composite z-score for "O=C(O)[C@H](Cc1ccccc1)n1cc(C2(O)CCCCC2)nn1" .
Completion: -0.338

Prompt: Recall and state the measured composite z-score for "COC(=O)[C@]1(Cc2ccccc2)N=C(c2ccc(OCCCO)cc2)O[C@@H]1c1ccccc1CN=[N+]=[N-]" .
Completion: -0.304
